System: axenic amastigotes of L. amazonensis (strain MHOM/BR/76/LTB-012)
Settings: Table 8b
Classify as follows. Reported Selectivity Index greater than or equal to 2: Fulfilled. Reported Selectivity Index below: Not fulfilled.

MOLECULE_SMILES	CLASS
CC(C)(C)c1ccc(/C=N\Nc2ncnc3sc4c(c23)CCCC4)cc1	Fulfilled
CC(C)c1ccc(/C=N\Nc2ncnc3sc4c(c23)CCCC4)cc1	Fulfilled
Oc1ccc(/C=N\Nc2ncnc3sc4c(c23)CCCC4)cc1	Fulfilled
C(=N/Nc1ncnc2sc3c(c12)CCCC3)/c1ccc2c(c1)OCO2	Not fulfilled
C(=N/Nc1ncnc2sc3c(c12)CCCC3)/c1ccccn1	Fulfilled
C(=N/Nc1ncnc2sc3c(c12)CCCC3)/c1ccncc1	Not fulfilled
COc1cc(/C=N\Nc2ncnc3sc4c(c23)CCCC4)cc(OC)c1OC	Not fulfilled
C=CCOc1cc(/C=N\Nc2ncnc3sc4c(c23)CCCC4)cc(OCC=C)c1Br	Not fulfilled
Clc1ccc(/C=N\Nc2ncnc3sc4c(c23)CCCC4)cc1	Fulfilled
c1ccc(C(=NNc2ncnc3sc4c(c23)CCCC4)c2ccccc2)cc1	Not fulfilled
Fc1ccccc1/C=N\Nc1ncnc2sc3c(c12)CCCC3	Fulfilled
COc1cccc(/C=N\Nc2ncnc3sc4c(c23)CCCC4)c1	Not fulfilled
COc1ccc(/C=N\Nc2ncnc3sc4c(c23)CCCC4)c(OC)c1	Fulfilled
Brc1ccc(/C=N\Nc2ncnc3sc4c(c23)CCCC4)cc1	Fulfilled
FC(F)(F)c1ccc(/C=N\Nc2ncnc3sc4c(c23)CCCC4)cc1	Fulfilled
C(=N/Nc1ncnc2sc3c(c12)CCCC3)/c1ccc2ccccc2c1	Not fulfilled
C(=N/Nc1ncnc2sc3c(c12)CCCC3)/c1cccc2ccccc12	Not fulfilled
C(=N/Nc1ncnc2sc3c(c12)CCCC3)/c1ccco1	Not fulfilled
CCc1ccc(/C=N\Nc2ncnc3sc4c(c23)CCCC4)cc1	Fulfilled
Clc1ccccc1/C=N\Nc1ncnc2sc3c(c12)CCCC3	Fulfilled
COc1cc(/C=N\Nc2ncnc3sc4c(c23)CCCC4)cc(OC)c1O	Fulfilled

----------
System: non-replicating persistence Mycobacterium tuberculosis (NRP-TB)
Assay: Low oxygen recovery assay (LORA)
Format: cell-based
Conditions: VERO vs LORA MIC; value in brackets
Reported values of Selectivity Index LORA for individual entries
MEASURE_NAME: Selectivity Index LORA

COMPOUND	READOUT_NUMBER
COc1ccc(/C=N\Nc2ncnc3sc4c(c23)CCCC4)cc1 [II-10]	8.5
C/C(=N/Nc1ncnc2sc3c(c12)CCCC3)c1ccccc1 [II-47]	11.5
C(=N/Nc1ncnc2sc3c(c12)CCCC3)/c1ccco1 [II-18]	4.3

----------
Reported values of MIC for individual entries
System: M. tuberculosis H37Rv
Assay: Conventional aerobic (MABA) culture assay, luminescence MIC
Assay type: cell-based, Mycobacterium tuberculosis
Details: Mycobacterium tuberculosis, 168 h; aerobic, 7 days, H37Rv

COMPOUND	UNIT_ANNOTATION	QUALIFIER_SYMBOL	MIC
Clc1ccc(/C=N\Nc2ncnc3sc4c(c23)CCCC4)cc1 [II-28]	µg/mL	>	100
CC(C)c1ccc(/C=N\Nc2ncnc3sc4c(c23)CCCC4)cc1 [II-07]	µg/mL	>	100
Brc1ccccc1/C=N\Nc1ncnc2sc3c(c12)CCCC3 [II-31]	µg/mL	=	9.4
Clc1ccccc1/C=N\Nc1ncnc2sc3c(c12)CCCC3 [II-29]	µg/mL	=	42.6

----------
Tested on: M. tuberculosis H37Rv
Assay: Conventional aerobic (MABA) culture assay, luminescence MIC
Type: cell-based, Mycobacterium tuberculosis
Conditions: Mycobacterium tuberculosis, 168 h; aerobic, 7 days, H37Rv
MEASURE_NAME: MIC

MOLECULE	MEASURE_NAME	RESULT
C(=N/Nc1ncnc2sc3c(c12)CCCC3)/c1cccc2ccccc12 [II-02]	MIC	> 100 µg/mL
CCC(CC)=NNc1ncnc2sc3c(c12)CCCC3 [II-48]	MIC	46.2 µg/mL
FC(F)(F)c1ccc(/C=N\Nc2ncnc3sc4c(c23)CCCC4)cc1 [II-24]	MIC	6.1 µg/mL
C(=N/Nc1ncnc2sc3c(c12)CCCC3)/c1ccc2ccccc2c1 [II-03]	MIC	> 100 µg/mL
O=[N+]([O-])c1ccc(/C=N\Nc2ncnc3sc4c(c23)CCCC4)cc1 [II-22]	MIC	> 100 µg/mL
C(=N/Nc1ncnc2sc3c(c12)CCCC3)/c1ccc[nH]1 [II-19]	MIC	6.2 µg/mL
COc1ccc(/C=N\Nc2ncnc3sc4c(c23)CCCC4)cc1 [II-10]	MIC	24.1 µg/mL
c1ccc(C(=NNc2ncnc3sc4c(c23)CCCC4)c2ccccc2)cc1 [II-49]	MIC	> 100 µg/mL
CC(C)(C)c1ccc(/C=N\Nc2ncnc3sc4c(c23)CCCC4)cc1 [II-08]	MIC	> 100 µg/mL
COc1ccc(/C=N\Nc2ncnc3sc4c(c23)CCCC4)c(OC)c1 [II-13]	MIC	> 100 µg/mL
COc1cc(/C=N\Nc2ncnc3sc4c(c23)CCCC4)cc(OC)c1O [II-16]	MIC	> 100 µg/mL
Brc1ccc(/C=N\Nc2ncnc3sc4c(c23)CCCC4)cc1 [II-30]	MIC	> 100 µg/mL
CCc1ccc(/C=N\Nc2ncnc3sc4c(c23)CCCC4)cc1 [II-06]	MIC	> 100 µg/mL
C/C(=N/Nc1ncnc2sc3c(c12)CCCC3)c1ccccc1 [II-47]	MIC	23.4 µg/mL
C(=N/Nc1ncnc2sc3c(c12)CCCC3)/c1ccncc1 [II-20]	MIC	> 100 µg/mL
COc1cccc(/C=N\Nc2ncnc3sc4c(c23)CCCC4)c1 [II-11]	MIC	40.4 µg/mL
C=CCOc1cc(/C=N\Nc2ncnc3sc4c(c23)CCCC4)cc(OCC=C)c1Br [II-17]	MIC	> 100 µg/mL
C(=N/Nc1ncnc2sc3c(c12)CCCC3)/c1ccccn1 [II-21]	MIC	44.9 µg/mL
Fc1ccccc1/C=N\Nc1ncnc2sc3c(c12)CCCC3 [II-27]	MIC	> 100 µg/mL
Oc1ccc(/C=N\Nc2ncnc3sc4c(c23)CCCC4)cc1 [II-09]	MIC	23.4 µg/mL
C(=N/Nc1ncnc2sc3c(c12)CCCC3)/c1ccc2c(c1)OCO2 [II-12]	MIC	> 100 µg/mL

----------
Tested on: H460 cells
Test: Cell growth inhibition bioassay (sulforhodamine B)
Assay type: cell-based, human
Details: Homo sapiens, NCI-H460; 48 h, SRB; read-out: GI50 in indicated cell line: H460

MOLECULE_SMILES	UNIT_ANNOTATION	QUALIFIER_SYMBOL	GI50
c1ccc(C(=NNc2ncnc3sc4c(c23)CCCC4)c2ccccc2)cc1	µg/mL	>	62.5
C/C(=N/Nc1ncnc2sc3c(c12)CCCC3)c1ccccc1	µg/mL	=	5.1
CCc1ccc(/C=N\Nc2ncnc3sc4c(c23)CCCC4)cc1	µg/mL	=	9.5
COc1ccc(/C=N\Nc2ncnc3sc4c(c23)CCCC4)c(OC)c1	µg/mL	=	10.9
COc1cccc(/C=N\Nc2ncnc3sc4c(c23)CCCC4)c1	µg/mL	=	5.5
C(=N/Nc1ncnc2sc3c(c12)CCCC3)/c1ccccc1	µg/mL	=	5.6
CC(C)(C)c1ccc(/C=N\Nc2ncnc3sc4c(c23)CCCC4)cc1	µg/mL	=	2.3
Brc1ccc(/C=N\Nc2ncnc3sc4c(c23)CCCC4)cc1	µg/mL	=	4.1
C(=N/Nc1ncnc2sc3c(c12)CCCC3)/c1ccc[nH]1	µg/mL	=	0.5
O=[N+]([O-])c1ccc(/C=N\Nc2ncnc3sc4c(c23)CCCC4)cc1	µg/mL	>	62.5
C(=N/Nc1ncnc2sc3c(c12)CCCC3)/c1cccc2ccccc12	µg/mL	=	7.1
COc1cc(/C=N\Nc2ncnc3sc4c(c23)CCCC4)cc(OC)c1O	µg/mL	>	62.5
Brc1ccccc1/C=N\Nc1ncnc2sc3c(c12)CCCC3	µg/mL	=	3
Clc1ccccc1/C=N\Nc1ncnc2sc3c(c12)CCCC3	µg/mL	=	21.6
Oc1ccc(/C=N\Nc2ncnc3sc4c(c23)CCCC4)cc1	µg/mL	=	4.8
CCC(CC)=NNc1ncnc2sc3c(c12)CCCC3	µg/mL	=	4.4

----------
System: axenic amastigotes of L. amazonensis (strain MHOM/BR/76/LTB-012)
Conditions: read-out: L. amazonensis IC50; Table 8b
pIC50: −log10 of the molar value.
Classify as follows. Reported pIC50 greater than or equal to 5: Condition met. Reported pIC50 below: Condition not met.

MOLECULE	CLASS
C[C@@H]1[C@H](O)[C@@H](C)/C=C/C=C/C=C/C=C/C=C/C=C/C=C/[C@H](O[C@@H]2O[C@H](C)[C@@H](O)[C@H](N)[C@@H]2O)C[C@@H]2O[C@](O)(C[C@@H](O)C[C@@H](O)[C@H](O)CC[C@@H](O)C[C@@H](O)CC(=O)O[C@H]1C)C[C@H](O)[C@H]2C(=O)O [Amphotericin B, reference compound]	Condition met
Fc1ccc(C=NNc2ncnc3sc4c(c23)CCCC4)cc1 [II-26]	Condition met
C(=Cc1ccccc1)C=NNc1ncnc2sc3c(c12)CCCC3 [II-04]	Condition met
FC(F)(F)c1ccccc1C=NNc1ncnc2sc3c(c12)CCCC3 [II-25]	Condition met
O=[N+]([O-])c1ccccc1C=NNc1ncnc2sc3c(c12)CCCC3 [II-23]	Condition not met
CC(C)(C)C=NNc1ncnc2sc3c(c12)CCCC3 [II-36]	Condition not met
